Biological target: HLA-B*5301 (human)
Test: competition with 125I probe peptide, purified HLA
pIC50: −log10 of the molar value.
Measured pIC50, listed per entry for reference.
OUTCOME MEASURE: pIC50

{"BINDER": "FPMCKGSRCI (analog peptide) [Her2/neu.196.F1]", "OUTCOME MEASURE": "pIC50", "REPORTED RESULT": 5.18}
{"BINDER": "FPTNASLSFI (analog peptide) [Her2/neu.65.F1I10]", "OUTCOME MEASURE": "pIC50", "REPORTED RESULT": 7.07}
{"BINDER": "FPTNASLSFL (analog peptide) [Her2/neu.65.F1 (10-mer)]", "OUTCOME MEASURE": "pIC50", "REPORTED RESULT": 6.76}
{"BINDER": "FPTNASLSI (analog peptide) [Her2/neu.65.F1I9]", "OUTCOME MEASURE": "pIC50", "REPORTED RESULT": 7.85}
{"BINDER": "FPHQALLHTI (analog peptide) [Her2/neu.488.F1I10]", "OUTCOME MEASURE": "pIC50", "REPORTED RESULT": 7.38}
{"BINDER": "CPSGVKPDLSI (analog peptide) [Her2/neu.600.I11]", "OUTCOME MEASURE": "pIC50", "REPORTED RESULT": 6.46}
{"BINDER": "FPTNASLSF (analog peptide) [Her2/neu.65.F1 (9-mer)]", "OUTCOME MEASURE": "pIC50", "REPORTED RESULT": 8.21}
{"BINDER": "FPGGLRELQI (analog peptide) [Her2/neu.133.F1I10]", "OUTCOME MEASURE": "pIC50", "REPORTED RESULT": 6.51}
{"BINDER": "FPCARVCYGL (analog peptide) [Her2/neu.336.F1]", "OUTCOME MEASURE": "pIC50", "REPORTED RESULT": 5.77}
